target: Mu-type opioid receptor (Homo sapiens, UniProt P35372); test: Agonist activity at human mu opioid receptor expressed in CHO cells assessed as inhibition of forskolin-induced cAMP accumulation at 10 uM after 30 mins by Eu-cAMP tracer based TR-FRET assay relative to DAMGO; format: functional, cell-based
Sequence (P35372 whole entry): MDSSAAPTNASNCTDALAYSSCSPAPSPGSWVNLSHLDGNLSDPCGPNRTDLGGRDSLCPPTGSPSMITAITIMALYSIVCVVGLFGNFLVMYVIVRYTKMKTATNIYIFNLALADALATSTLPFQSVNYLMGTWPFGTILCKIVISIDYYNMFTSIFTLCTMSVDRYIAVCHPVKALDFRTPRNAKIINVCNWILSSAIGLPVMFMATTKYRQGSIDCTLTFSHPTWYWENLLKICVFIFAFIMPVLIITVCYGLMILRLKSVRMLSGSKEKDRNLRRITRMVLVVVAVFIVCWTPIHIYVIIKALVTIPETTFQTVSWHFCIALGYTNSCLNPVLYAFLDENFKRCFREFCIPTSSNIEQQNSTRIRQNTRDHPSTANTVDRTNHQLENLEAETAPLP
The following compounds are shown together with reported Emax values.
Readout kind: Emax (%)

| Compound | Target desc | Readout kind | Reported value |
| --- | --- | --- | --- |
| COCCCN1CC[C@]23Cc4nc5ccccc5cc4C[C@@]2(O)[C@H]1Cc1ccc(O)cc13 | Mu-type opioid receptor (Homo sapiens, UniProt P35372) | Emax | 25 |
| C=CCN1CCC23c4cc(O)ccc4CC1C21CCC2C3[C@@H](CN2C(=O)c2ccccc2)O1 (stereo not given in full) | Mu-type opioid receptor (Homo sapiens, UniProt P35372) | Emax | 2.2 |
| CC(C)CN1CCC23c4cc(O)ccc4CC1C21CCC2C3[C@@H](CN2C(=O)c2ccccc2)O1 (stereo not given in full) | Mu-type opioid receptor (Homo sapiens, UniProt P35372) | Emax | 15 |
| O=C(c1ccccc1)N1C[C@H]2OC34CCC1C2C31CCN(CC2CC2)C4Cc2ccc(O)cc21 (stereo not given in full) | Mu-type opioid receptor (Homo sapiens, UniProt P35372) | Emax | 3.9 |
| Oc1ccc2c(c1)C13CCN(CC4CC4)C(C2)C12CCC1C3[C@@H](CN1Cc1ccccc1)O2 (stereo not given in full) | Mu-type opioid receptor (Homo sapiens, UniProt P35372) | Emax | 4.2 |

* * *

The following compounds are shown together with reported Ratio Ki values.
assay: Selectivity ratio of Ki for kappa opioid receptor in guinea pig cerebellum membrane to Ki for delta opioid receptor in mouse whole brain without cerebellum; type: cell membranes

| Compound | Ratio Ki |
| --- | --- |
| O=C(c1ccccc1)N1C[C@H]2OC34CCC1C2C31CCN(CCc2ccccc2)C4Cc2ccc(O)cc21 (stereo partly specified) | 74 |
| COCCCN1CCC23c4cc(O)ccc4CC1C21CCC2C3[C@@H](CN2C(=O)c2ccccc2)O1 (stereo partly specified) | 55 |
| CC(C)CN1CCC23c4cc(O)ccc4CC1C21CCC2C3[C@@H](CN2C(=O)c2ccccc2)O1 (stereo partly specified) | 8.2 |
| CN1CCC23c4cc(O)ccc4CC1C21CCC2C3[C@@H](CN2C(=O)c2ccccc2)O1 (stereo partly specified) | 104 |
| O=C(c1ccccc1)N1C[C@H]2OC34CCC1C2C31CCN(CC2CC2)C4Cc2ccc(O)cc21 (stereo partly specified) | 4.4 |
| C=CCN1CCC23c4cc(O)ccc4CC1C21CCC2C3[C@@H](CN2C(=O)c2ccccc2)O1 (stereo partly specified) | 23 |

* * *

In what follows, each item is paired with its Ki for Kappa-type opioid receptor (Homo sapiens, UniProt P41145).
Readout kind: Ki

| Compound | Reported value |
| --- | --- |
| O=C(c1ccccc1)N1C[C@H]2OC34CCC1C2C31CCN(CC2CC2)C4Cc2ccc(O)cc21 (stereo partly drawn) | 1.05 nM |
| O=S(=O)(c1ccccc1)N1C[C@H]2OC34CCC1C2C31CCN(CC2CC2)C4Cc2ccc(O)cc21 (stereo partly drawn) | 0.658 nM |
| Oc1ccc2c(c1)C13CCN(CC4CC4)C(C2)C12CCC1C3[C@@H](CN1Cc1ccccc1)O2 (stereo partly drawn) | 1.38 nM |

* * *

species: Mus musculus; assay: Selectivity ratio of Ki for mu opioid receptor in mouse whole brain without cerebellum to Ki for delta opioid receptor in mouse whole brain without cerebellum
Readout kind: Ratio Ki

| Compound | Reported value |
| --- | --- |
| C=CCN1CCC23c4cc(O)ccc4CC1C21CCC2C3[C@@H](CN2C(=O)c2ccccc2)O1 (stereo partly specified) | 7.6 |
| CC(C)CN1CCC23c4cc(O)ccc4CC1C21CCC2C3[C@@H](CN2C(=O)c2ccccc2)O1 (stereo partly specified) | 5.9 |
| COCCCN1CCC23c4cc(O)ccc4CC1C21CCC2C3[C@@H](CN2C(=O)c2ccccc2)O1 (stereo partly specified) | 11 |
| O=C(c1ccccc1)N1C[C@H]2OC34CCC1C2C31CCN(CCc2ccccc2)C4Cc2ccc(O)cc21 (stereo partly specified) | 1.2 |
| O=C(c1ccccc1)N1C[C@H]2OC34CCC1C2C31CCN(CC2CC2)C4Cc2ccc(O)cc21 (stereo partly specified) | 1.2 |
| CN1CCC23c4cc(O)ccc4CC1C21CCC2C3[C@@H](CN2C(=O)c2ccccc2)O1 (stereo partly specified) | 1.3 |

* * *

biological target: Delta-type opioid receptor (Homo sapiens, UniProt P41143); assay: Agonist activity at human delta opioid receptor expressed in CHO cells assessed as inhibition of forskolin-induced cAMP accumulation after 30 mins by Eu-cAMP tracer based TR-FRET assay relative to SNC80; assay type: functional, cell-based
Sequence (P41143 whole entry): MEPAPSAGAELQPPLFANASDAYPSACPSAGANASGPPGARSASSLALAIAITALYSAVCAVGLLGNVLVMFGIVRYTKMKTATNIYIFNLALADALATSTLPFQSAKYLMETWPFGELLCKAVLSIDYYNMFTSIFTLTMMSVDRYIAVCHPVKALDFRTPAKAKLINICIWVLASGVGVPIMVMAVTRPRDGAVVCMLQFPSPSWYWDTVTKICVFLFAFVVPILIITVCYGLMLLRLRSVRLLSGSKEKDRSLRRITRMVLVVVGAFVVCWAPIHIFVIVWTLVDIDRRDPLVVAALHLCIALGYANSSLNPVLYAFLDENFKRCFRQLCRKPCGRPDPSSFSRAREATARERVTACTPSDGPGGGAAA
The following molecules are shown together with reported Emax values.

| Molecule | Emax, % |
| --- | --- |
| C=CCN1CCC23c4cc(O)ccc4CC1C21CCC2C3[C@@H](CN2C(=O)c2ccccc2)O1 (some centres undefined) | 73 |
| CC(C)CN1CCC23c4cc(O)ccc4CC1C21CCC2C3[C@@H](CN2C(=O)c2ccccc2)O1 (some centres undefined) | 99 |
| COCCCN1CC[C@]23Cc4nc5ccccc5cc4C[C@@]2(O)[C@H]1Cc1ccc(O)cc13 | 95 |
| O=C(c1ccccc1)N1C[C@H]2OC34CCC1C2C31CCN(CC2CC2)C4Cc2ccc(O)cc21 (some centres undefined) | 96 |
| Oc1ccc2c(c1)C13CCN(CC4CC4)C(C2)C12CCC1C3[C@@H](CN1Cc1ccccc1)O2 (some centres undefined) | 79 |
| CN1CCC23c4cc(O)ccc4CC1C21CCC2C3[C@@H](CN2C(=O)c2ccccc2)O1 (some centres undefined) | 94 |
| O=C(c1ccccc1)N1C[C@H]2OC34CCC1C2C31CCN(CCc2ccccc2)C4Cc2ccc(O)cc21 (some centres undefined) | 100 |
| COCCCN1CCC23c4cc(O)ccc4CC1C21CCC2C3[C@@H](CN2C(=O)c2ccccc2)O1 (some centres undefined) | 120 |
| O=S(=O)(c1ccccc1)N1C[C@H]2OC34CCC1C2C31CCN(CC2CC2)C4Cc2ccc(O)cc21 (some centres undefined) | 66 |

* * *

target: UniProt P35372; experiment: Agonist activity at human mu opioid receptor expressed in CHO cells assessed as inhibition of forskolin-induced cAMP accumulation after 30 mins by Eu-cAMP tracer based TR-FRET assay

| Molecule | EC50 (nM) |
| --- | --- |
| COCCCN1CCC23c4cc(O)ccc4CC1C21CCC2C3[C@@H](CN2C(=O)c2ccccc2)O1 (some centres undefined) | 22 |
| O=C(c1ccccc1)N1C[C@H]2OC34CCC1C2C31CCN(CCc2ccccc2)C4Cc2ccc(O)cc21 (some centres undefined) | 5.3 |
| O=S(=O)(c1ccccc1)N1C[C@H]2OC34CCC1C2C31CCN(CC2CC2)C4Cc2ccc(O)cc21 (some centres undefined) | 2.5 |
| CN1CCC23c4cc(O)ccc4CC1C21CCC2C3[C@@H](CN2C(=O)c2ccccc2)O1 (some centres undefined) | 5.9 |

* * *

target: Delta-type opioid receptor (Homo sapiens); assay: Displacement of [3H]DPDPE from human delta opioid receptor expressed in CHO cells
pKi: −log10 of the molar value.
Readout kind: pKi

| Molecule | Target desc | Readout kind | Reported value |
| --- | --- | --- | --- |
| O=C(c1ccccc1)N1C[C@H]2OC34CCC1C2C31CCN(CC2CC2)C4Cc2ccc(O)cc21 (stereo partly drawn) | Delta-type opioid receptor (Homo sapiens) | pKi | 9.81 |
| Oc1ccc2c(c1)C13CCN(CC4CC4)C(C2)C12CCC1C3[C@@H](CN1Cc1ccccc1)O2 (stereo partly drawn) | Delta-type opioid receptor (Homo sapiens) | pKi | 9.30 |
| O=S(=O)(c1ccccc1)N1C[C@H]2OC34CCC1C2C31CCN(CC2CC2)C4Cc2ccc(O)cc21 (stereo partly drawn) | Delta-type opioid receptor (Homo sapiens) | pKi | 9.66 |

* * *

target: Delta-type opioid receptor (Homo sapiens, UniProt P41143); test: Agonist activity at human delta opioid receptor expressed in CHO cells assessed as inhibition of forskolin-induced cAMP accumulation after 30 mins by Eu-cAMP tracer based TR-FRET assay
pEC50: −log10 of the molar value.
The following compounds are shown together with reported pEC50 values.

| Compound | pEC50 |
| --- | --- |
| CN1CCC23c4cc(O)ccc4CC1C21CCC2C3[C@@H](CN2C(=O)c2ccccc2)O1 (some centres undefined) | 9.37 |
| O=C(c1ccccc1)N1C[C@H]2OC34CCC1C2C31CCN(CCc2ccccc2)C4Cc2ccc(O)cc21 (some centres undefined) | 9.21 |
| Oc1ccc2c(c1)C13CCN(CC4CC4)C(C2)C12CCC1C3[C@@H](CN1Cc1ccccc1)O2 (some centres undefined) | 9.17 |
| C=CCN1CCC23c4cc(O)ccc4CC1C21CCC2C3[C@@H](CN2C(=O)c2ccccc2)O1 (some centres undefined) | 9.37 |
